Where do the numbers come from? From patent US9464064B2.

# target.system: HCV NS3 helicase NS3h_1b(con1) (Hepatitis C virus genotype 1b, UniProt Q9WMX2)
# Construct: truncated C-terminally His-tagged NS3 proteins lacking the N-terminal protease, called NS3h; His-tag (C); made in house
# Sequence (Q9WMX2 1192-1657): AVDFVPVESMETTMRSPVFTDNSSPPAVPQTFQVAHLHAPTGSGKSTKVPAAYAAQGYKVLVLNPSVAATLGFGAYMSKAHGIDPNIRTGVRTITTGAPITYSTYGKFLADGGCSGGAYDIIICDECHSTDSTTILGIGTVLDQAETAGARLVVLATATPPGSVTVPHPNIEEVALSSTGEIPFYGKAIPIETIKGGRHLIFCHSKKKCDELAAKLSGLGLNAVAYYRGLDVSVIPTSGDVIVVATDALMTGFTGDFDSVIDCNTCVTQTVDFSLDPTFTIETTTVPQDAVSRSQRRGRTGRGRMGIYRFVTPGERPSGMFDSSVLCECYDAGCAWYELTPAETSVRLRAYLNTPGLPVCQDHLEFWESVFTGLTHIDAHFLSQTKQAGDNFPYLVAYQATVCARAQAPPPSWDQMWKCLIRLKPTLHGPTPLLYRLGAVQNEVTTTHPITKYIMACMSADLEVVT
# assay.method.text: MBHA screen of NCI mechanistic set library at 20 μM (percent inhibition, compound interference)
# Format: biochemical
# condition.info: compounds at 20 μM, MBHA with DNA substrate; assay interference calculated with Equation 2
quantity.measured: Int.* (Ratio) (Interference)

{"columns": ["compound", "measured.result"],
 "data": [
  ["Nc1nc(SCc2ccccc2Cl)c2[nH]cnc2n1 [Compound 36826]", 0.98],
  ["CC1=C(O)c2ccccc2C(=O)C1=O [Compound 11897]", 1.05],
  ["CN(C)CCN1C(=O)c2cccc3cc(N)cc(c23)C1=O [Compound 308847]", 1.05]
]}

(1) COc1ccc(/C(=N/O)C(c2ccc(OC)cc2)C2C(=O)Oc3ccccc32)cc1 (centres unmarked) [Compound 641607]
(2) Cl.Nc1ccc2cc3ccc(N)cc3nc2c1 [Compound 605756]
I need your help: which of the pair 1 , 2 has higher Int.* (Ratio) (Interference)? I would appreciate it if you answered with the label of your choice. 1
(1: 1.03 Ratio, 2: 0.33 Ratio)
